Target: human GLP-1 receptor (human, UniProt P43220)
Assay: cell-based or functional assay
Param threshold (4 relative potency) applies to GLP-1 receptor activation relative to Val^8-GLP-1(7-37)OH; output MET when value >= threshold, NOT MET when value < threshold.

binder	category_label
HVEGTFTSDYSSFLEGQAAKEFIAWLVKGRG [Val^8-Tyr^16-Phe^19-GLP-1(7-37)OH]	NOT MET
HVEGTFTSDISSYLEEQAAKEFIAWLVKGRG [Val^8-Ile^16-Glu^22-GLP-1(7-37)OH]	NOT MET
HVEGTFTSDYSSWLEEQAAKEFIAWLVKGRG [Val^8-Tyr^16-Trp^19-Glu^22-GLP-1(7-37)OH]	NOT MET

Hi, just wondering whether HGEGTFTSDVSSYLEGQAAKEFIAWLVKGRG [Gly^8-GLP-1(7-37)OH] shows GLP-1 receptor activation relative to Val^8-GLP-1(7-37)OH of 4 relative potency or higher.
NOT MET

Hi, just wondering whether HVEGTFTSDWSSYLEEQAVKEFIAWLIKGRG [Val^8-Trp^16-Glu^22-Val^25-Ile^33-GLP-1(7-37)OH] shows GLP-1 receptor activation relative to Val^8-GLP-1(7-37)OH of 4 relative potency or higher.
MET

Hi, just wondering whether HVEGTYTSDYSSYLEGQAAKEFIAWLVKGRG [Val^8-Tyr^12-Tyr^16-GLP-1(7-37)OH] shows GLP-1 receptor activation relative to Val^8-GLP-1(7-37)OH of 4 relative potency or higher.
NOT MET

Reference for the values: patent US20040235710A1
